target: CYP2C19 (Homo sapiens)
Sequence (P33261 whole entry): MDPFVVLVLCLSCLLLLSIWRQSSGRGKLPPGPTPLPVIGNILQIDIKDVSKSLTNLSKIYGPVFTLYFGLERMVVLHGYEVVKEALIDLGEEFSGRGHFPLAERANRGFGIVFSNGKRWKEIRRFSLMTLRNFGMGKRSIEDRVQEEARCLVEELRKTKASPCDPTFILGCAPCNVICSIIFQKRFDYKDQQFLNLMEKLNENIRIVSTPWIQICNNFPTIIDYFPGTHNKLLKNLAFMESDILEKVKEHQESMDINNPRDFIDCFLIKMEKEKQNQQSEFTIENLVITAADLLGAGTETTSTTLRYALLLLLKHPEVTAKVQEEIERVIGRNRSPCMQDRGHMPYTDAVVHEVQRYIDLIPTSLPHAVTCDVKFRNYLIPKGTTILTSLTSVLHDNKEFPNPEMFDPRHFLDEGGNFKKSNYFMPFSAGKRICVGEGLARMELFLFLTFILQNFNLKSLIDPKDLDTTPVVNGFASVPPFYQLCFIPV
measured.endpoint: IC50

// recorded IC50 for O=C(O)c1cccc(-c2noc(-c3ccccc3F)n2)c1 [ataluren, Ataluren] : > 400 µM

---

test: Plasma protein binding (ultrafiltration), dog; type: in vitro ADME; details: male, beagle, 50 to 50 000 ng/mL, mean ± SD, n = 3, read-out: percentage protein binding (converted)
measured.endpoint: fraction unbound at 15 min

The compound listed as "O=C(O)c1cccc(-c2noc(-c3ccccc3F)n2)c1" has a reported fraction unbound at 15 min of 0.025

---

experiment: Ataluren glucuronidation kinetics, human kidney microsomes; format: in vitro ADME; conditions: human, pooled human kidney microsomes incubation mixture, pH 7.5, HKM, 2% BSA, mean ± SD, n = 3; read-out: fu,inc
measured.endpoint: fraction unbound at 15 min
Keep it simple and answer with nothing but the number.

For record "O=C(O)c1cccc(-c2noc(-c3ccccc3F)n2)c1" the listed fraction unbound at 15 min is 0.03

---

experiment: Ataluren glucuronidation kinetics, human intestinal microsomes; format: in vitro ADME; conditions: human, pooled human intestinal microsomes incubation mixture, pH 7.5, HIM, 2% BSA, mean ± SD, n = 3; read-out: fu,inc
measured.endpoint: fraction unbound at 15 min
// print number alone

Lab note: "O=C(O)c1cccc(-c2noc(-c3ccccc3F)n2)c1" gave fraction unbound at 15 min of 0.036

---

test: Ataluren glucuronidation kinetics, human intestinal microsomes; format: in vitro ADME; settings: human, pooled human intestinal microsomes incubation mixture, pH 7.5, HIM, 1% BSA, mean ± SD, n = 3; read-out: fu,inc
measured.endpoint: fraction unbound at 15 min
Write the value as a bare number.

Reported fraction unbound at 15 min of "O=C(O)c1cccc(-c2noc(-c3ccccc3F)n2)c1" : 0.056

---

target: UGT1A9 (Homo sapiens, UniProt O60656); construct: purchased BD Biosciences; host or cells: baculovirus-infected insect cells; assay: Ataluren glucuronidation kinetics, recombinant human UGT1A9; type: in vitro ADME; conditions: human, recombinant human UGT1A9, pH 7.5, UGT1A9, 2% BSA; read-out: CLint,u,UGT
Sequence (O60656 26-530): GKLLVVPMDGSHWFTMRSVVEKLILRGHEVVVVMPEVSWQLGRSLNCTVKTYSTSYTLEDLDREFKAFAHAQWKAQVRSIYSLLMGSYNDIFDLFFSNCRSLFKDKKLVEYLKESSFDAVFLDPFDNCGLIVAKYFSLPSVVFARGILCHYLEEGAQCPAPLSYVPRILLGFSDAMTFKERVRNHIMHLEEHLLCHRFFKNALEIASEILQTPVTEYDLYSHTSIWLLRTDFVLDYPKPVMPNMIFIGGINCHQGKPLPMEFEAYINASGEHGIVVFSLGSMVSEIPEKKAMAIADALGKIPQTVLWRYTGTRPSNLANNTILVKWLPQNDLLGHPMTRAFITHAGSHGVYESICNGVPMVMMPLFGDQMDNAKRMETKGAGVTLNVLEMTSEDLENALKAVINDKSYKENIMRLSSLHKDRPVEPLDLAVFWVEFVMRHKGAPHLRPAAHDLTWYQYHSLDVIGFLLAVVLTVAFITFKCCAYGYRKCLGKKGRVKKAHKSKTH
measured.endpoint: microsomal CLint (µL/min/mg)
Just the number please, in µL/min/mg, no unit attached.

Per the record, "O=C(O)c1cccc(-c2noc(-c3ccccc3F)n2)c1" has microsomal CLint of 344

---

Target: CYP2C8 (Homo sapiens, UniProt P10632)
Construct: tissue XenoTech LLC, Celsis-In Vitro Technologies, or Tissue Transformation Technologies; host or cells: pooled human liver microsomes
Sequence (P10632 1-490): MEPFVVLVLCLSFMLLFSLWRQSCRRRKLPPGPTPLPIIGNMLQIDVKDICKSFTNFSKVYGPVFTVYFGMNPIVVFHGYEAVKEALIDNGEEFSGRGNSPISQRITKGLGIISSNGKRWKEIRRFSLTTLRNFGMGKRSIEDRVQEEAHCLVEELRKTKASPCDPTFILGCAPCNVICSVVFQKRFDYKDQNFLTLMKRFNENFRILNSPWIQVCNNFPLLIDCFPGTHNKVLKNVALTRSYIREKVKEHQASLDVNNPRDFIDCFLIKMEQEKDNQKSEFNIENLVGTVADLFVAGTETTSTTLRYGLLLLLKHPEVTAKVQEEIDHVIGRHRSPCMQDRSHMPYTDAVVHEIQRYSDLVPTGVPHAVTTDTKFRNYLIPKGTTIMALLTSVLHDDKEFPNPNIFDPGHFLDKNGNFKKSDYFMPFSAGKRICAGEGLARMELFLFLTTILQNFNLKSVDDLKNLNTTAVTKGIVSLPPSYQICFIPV
Experiment: CYP inhibition in pooled human liver microsomes: CYP2C8
Assay type: in vitro ADME
Details: Amodiaquine N-deethylase, pooled HLM, n=3, (95% confidence interval)
measured.endpoint: pIC50
// field semantics: pIC50 = negative decimal log of concentration (mol/L)

Note to self: pIC50 recorded for O=C(O)c1cccc(-c2noc(-c3ccccc3F)n2)c1 [ataluren, Ataluren] was 3.79
